# TEST TARGET: AHR (Homo sapiens, UniProt P35869)
# Construct: U87 MG glioblastoma cells (ATCC #HTB-14) endogenously expressing AHR; endogenous in cells; host or cells: U87 MG glioblastoma cells (ATCC #HTB-14)
# Sequence (P35869 11-848): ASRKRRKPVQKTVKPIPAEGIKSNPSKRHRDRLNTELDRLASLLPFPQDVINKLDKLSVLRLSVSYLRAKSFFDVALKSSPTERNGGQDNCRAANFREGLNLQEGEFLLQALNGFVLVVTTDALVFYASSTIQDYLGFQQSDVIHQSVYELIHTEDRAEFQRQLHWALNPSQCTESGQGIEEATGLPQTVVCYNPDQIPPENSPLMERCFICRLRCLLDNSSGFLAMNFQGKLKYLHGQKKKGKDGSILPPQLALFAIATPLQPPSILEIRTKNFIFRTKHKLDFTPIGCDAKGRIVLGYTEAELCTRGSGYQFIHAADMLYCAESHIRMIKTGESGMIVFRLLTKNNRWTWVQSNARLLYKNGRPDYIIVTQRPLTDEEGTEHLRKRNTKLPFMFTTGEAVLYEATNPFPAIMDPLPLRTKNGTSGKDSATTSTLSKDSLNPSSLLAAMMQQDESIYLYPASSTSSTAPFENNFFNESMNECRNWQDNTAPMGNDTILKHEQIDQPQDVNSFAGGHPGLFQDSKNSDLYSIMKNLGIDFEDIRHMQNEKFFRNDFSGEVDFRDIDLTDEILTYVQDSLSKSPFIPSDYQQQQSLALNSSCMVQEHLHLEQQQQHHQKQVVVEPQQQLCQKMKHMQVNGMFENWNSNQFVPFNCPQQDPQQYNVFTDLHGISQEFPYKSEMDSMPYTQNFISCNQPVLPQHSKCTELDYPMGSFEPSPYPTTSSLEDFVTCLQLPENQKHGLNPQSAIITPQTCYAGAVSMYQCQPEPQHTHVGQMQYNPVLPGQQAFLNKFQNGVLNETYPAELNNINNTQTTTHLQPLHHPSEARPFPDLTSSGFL
# TEST DESCRIPTION: In vitro assay 1: antagonism in human cell line (AHR transactivation, firefly luciferase reporter, kynurenic acid prestimulated)
# Type: cell-based
# MEASUREMENT CONTEXT: AHR Antagonism Human IC50 [M]
ASSAY ENDPOINT: IC50 (M)

>>> test_result("O=C1NCCCC[C@H]1Nc1nc2ccccc2c2nc(-c3ccc(Cl)cc3)nn12 [Example 6]")
"5.93e-10"
>>> test_result("O=C1NCCCC[C@@H]1Nc1nc2ccccc2c2nc(-c3cnccn3)nn12 [Example 695]")
"2.96e-06"
>>> test_result("Cc1noc(-c2nc3c4ccccc4nc(N[C@@H]4CCCCNC4=O)n3n2)n1 [Example 131]")
"1.79e-07"
>>> test_result("O=C1NCCCC[C@H]1Nc1nc2c(Cl)cccc2c2nc(-c3ccncc3)nn12 [Example 193]")
"2.05e-08"
>>> test_result("CC(C)n1cc(-c2nc3c4ccccc4nc(N[C@@H]4CCCCNC4=O)n3n2)cn1 [Example 195]")
"3.06e-09"
>>> test_result("NC(=O)[C@@H](CO)Nc1nc2ccccc2c2nc(-c3ccccc3)nn12 [Example 2]")
"2.4e-08"
>>> test_result("Cn1cc(-c2nc3c4cccc(C(F)(F)F)c4nc(N[C@@H]4CCCNC4=O)n3n2)cn1 [Example 585]")
"6.91e-08"
>>> test_result("O=C1NCCCC[C@H]1Nc1nc2ccccc2c2nc(-c3cccnc3C(F)(F)F)nn12 [Example 488]")
"6.4e-08"
>>> test_result("Cn1cc(-c2nc3c4cccc(F)c4nc(N[C@@H]4CCCCNC4=O)n3n2)cn1 [Example 551]")
"1.17e-08"
>>> test_result("CC[C@@H](Nc1nc2ccccc2c2nc(-c3csc(C)c3)nn12)C(N)=O [Example 358]")
"3.15e-09"
>>> test_result("N#Cc1cccc(-c2nc3c4ccccc4nc(N[C@H]4CCCCNC4=O)n3n2)c1 [Example 385]")
"1.97e-06"
>>> test_result("COc1ccc(-c2nc3c4cccc(O)c4nc(N[C@@H]4CCCCNC4=O)n3n2)cc1 [Example 669]")
"1.99e-09"
>>> test_result("COc1ccc(-c2nc3c4ccccc4nc(N[C@@H]4CCCCNC4=O)n3n2)c(F)c1 [Example 631]")
"1e-09"
>>> test_result("CCC[C@@H](Nc1nc2ccccc2c2nc(-c3ccc(S(C)(=O)=O)cc3)nn12)C(=O)NC [Example 377]")
"3.28e-08"
>>> test_result("CCCCNC(=O)CNc1nc2ccccc2c2nc(-c3ccccc3OC(F)(F)F)nn12 [Example 466]")
"1.26e-07"
>>> test_result("O=C1NCCCC[C@H]1Nc1nc2ccccc2c2nc(-c3ccc(Cl)cc3OC(F)(F)F)nn12 [Example 517]")
"1.47e-09"
>>> test_result("O=C1NCCCC[C@H]1Nc1nc2c(Cl)cccc2c2nc(-c3ccc(F)cc3)nn12 [Example 554]")
"7.68e-09"

---

log10 of IC50 for assorted compounds
# TEST TARGET: AHR (Homo sapiens)
# Construct: U87 MG glioblastoma cells (ATCC #HTB-14) endogenously expressing AHR; endogenous in cells; host or cells: U87 MG glioblastoma cells (ATCC #HTB-14)
# TEST DESCRIPTION: In vitro assay 1: antagonism in human cell line (AHR transactivation, firefly luciferase reporter, kynurenic acid prestimulated)
# Format: cell-based
# MEASUREMENT CONTEXT: AHR Antagonism Human IC50 [M], firefly luciferase reporter
ASSAY ENDPOINT: log10 of IC50 (log10 of the value in M)

>>> test_result("CC(C)n1cc(-c2nc3c4cccc(C(F)(F)F)c4nc(N[C@H]4CNCCNC4=O)n3n2)cn1")
-7.40
>>> test_result("CCS(=O)(=O)c1cccc2c1nc(N[C@@H]1CCCCNC1=O)n1nc(-c3ccc(OC)cc3)nc21")
-8.75
>>> test_result("CC[C@H](Nc1nc2c(C(F)(F)F)cccc2c2nc(-c3ccnn3C)nn12)C(N)=O")
-6.72
>>> test_result("C[C@@H](Nc1nc2c(C(F)(F)F)cccc2c2nc(-c3cnn(C)c3)nn12)C(=O)N1CCC(N(C)C)C1 (mixture of isomers)")
-7.27
>>> test_result("COc1ccc(-c2nc3c4cccc(S(=O)(=O)C(C)C)c4nc(N[C@@H]4CCCCNC4=O)n3n2)cc1")
-8.35
>>> test_result("CCn1cc(-c2nc3c4cccc(F)c4nc(N[C@@H]4CNCCNC4=O)n3n2)cn1")
-6.10
>>> test_result("COc1ccc(-c2nc3c4cccc(Br)c4nc(N[C@H](C)C(=O)N4C[C@@H]5C[C@H]4CN5C)n3n2)cc1")
-8.54

---

# TEST TARGET: AHR (Homo sapiens, UniProt P35869)
# Construct: U87 MG glioblastoma cells (ATCC #HTB-14) endogenously expressing AHR; endogenous in cells; host or cells: U87 MG glioblastoma cells (ATCC #HTB-14)
# Sequence (P35869 11-848): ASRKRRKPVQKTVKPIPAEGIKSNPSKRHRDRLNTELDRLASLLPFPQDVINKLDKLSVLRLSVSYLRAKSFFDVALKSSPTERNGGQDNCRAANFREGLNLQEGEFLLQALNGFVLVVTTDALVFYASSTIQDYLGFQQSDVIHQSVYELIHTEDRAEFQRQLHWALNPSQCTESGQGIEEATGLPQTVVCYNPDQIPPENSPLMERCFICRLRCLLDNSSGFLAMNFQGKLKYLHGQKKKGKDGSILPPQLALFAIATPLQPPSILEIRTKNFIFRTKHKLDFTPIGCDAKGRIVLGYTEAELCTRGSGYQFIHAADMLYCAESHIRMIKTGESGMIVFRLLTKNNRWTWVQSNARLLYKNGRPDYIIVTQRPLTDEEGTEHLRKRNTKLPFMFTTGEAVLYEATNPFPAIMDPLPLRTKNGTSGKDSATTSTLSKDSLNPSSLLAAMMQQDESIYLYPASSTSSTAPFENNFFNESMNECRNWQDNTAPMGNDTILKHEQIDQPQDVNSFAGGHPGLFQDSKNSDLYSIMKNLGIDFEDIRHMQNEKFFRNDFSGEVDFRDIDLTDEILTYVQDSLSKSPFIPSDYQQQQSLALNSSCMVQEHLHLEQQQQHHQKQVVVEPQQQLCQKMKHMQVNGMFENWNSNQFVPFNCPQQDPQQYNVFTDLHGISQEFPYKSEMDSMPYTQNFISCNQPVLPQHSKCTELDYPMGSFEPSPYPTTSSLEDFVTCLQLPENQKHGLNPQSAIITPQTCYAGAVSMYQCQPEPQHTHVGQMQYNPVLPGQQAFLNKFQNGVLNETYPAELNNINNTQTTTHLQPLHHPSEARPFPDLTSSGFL
# TEST DESCRIPTION: In vitro assay 1: antagonism in human cell line (AHR transactivation, firefly luciferase reporter, kynurenic acid prestimulated)
# Type: cell-based
# MEASUREMENT CONTEXT: AHR Antagonism Human IC50 [M]
ASSAY ENDPOINT: IC50 (M)

>>> test_result("COc1cccc(-c2nc3c4c(C)cccc4nc(N[C@H]4CCCNC4=O)n3n2)c1 [Example 182]")
"2.54e-07"
>>> test_result("COc1cccc(-c2nc3c4ccccc4nc(N[C@H](C)C(=O)NC(C)C)n3n2)c1 [Example 105]")
"8.86e-09"
>>> test_result("Cn1cc(-c2nc3c4ccccc4nc(NC4CCNC4=O)n3n2)cn1 (stereo not shown) [Example 15]")
"1.78e-05"
>>> test_result("CC[C@@H](Nc1nc2ccccc2c2nc(-c3cscc3C)nn12)C(N)=O [Example 542]")
"3.55e-09"
